Experiment: Microsomal stability assay, rat liver microsomes
Assay type: in vitro ADME
Excerpt: Microsomal Stability Assay
Endpoint: RLM (µL/min/mg)
Field: numeric (µL/min/mg). Do not append units.

- Compound: "C=CC[C@H](NC(=O)[C@@H](C)OC)[C@H](O)CN[C@H]1CC2(CCC2)Oc2c(-c3nccs3)cc(CC(C)C)cc21"
  Endpoint: "RLM"
  Reported: 644
- Compound: "C=CC[C@H](NC(=O)[C@@H]1CN(Cc2nccs2)CCO1)[C@H](O)CN[C@H]1CC2(CCC2)Oc2ncc(CC(C)(C)C)cc21"
  Endpoint: "RLM"
  Reported: 335
- Compound: "C=CC[C@H](NC(=O)C1COC(c2cccnc2)O1)[C@H](O)CN[C@H]1CC2(CCC2)Oc2ncc(CC(C)(C)C)cc21 (stereo partly drawn)"
  Endpoint: "RLM"
  Reported: 173

What measured RLM goes with C=CC[C@H](NC(=O)COC)[C@H](O)CN[C@H]1CC2(CCC2)Oc2c1cc(CC(C)(C)C)nc2-c1cncn1C ? 68

Then this compound: C=CC[C@H](NC(=O)COC)[C@H](O)CN[C@H]1CC2(CCC2)Oc2c(-c3ccc4c(c3)OCO4)cc(CC(C)(C)C)cc21 232

What do we get for C=CC[C@H](NC(=O)COC)[C@H](O)CN[C@H]1CC2(CCC2)Oc2c1cc(CC(C)(C)C)nc2Nc1nccs1 ? 119

---

Experiment: Microsomal stability assay, human liver microsomes
Format: in vitro ADME
Endpoint: HLM (µL/min/mg)
The figure you give is taken to be in µL/min/mg; do not add the unit.

Sample answers from the record:
- Compound: "C=CC[C@H](NC(=O)COC)[C@H](O)CN[C@H]1CC2(CCC2)Oc2c(-c3nccs3)cc(CC(C)(C)C)cc21 [compound 215]"
  Reading unit: "µL/min/mg"
  HLM: 736
- Compound: "C#CC[C@H](NC(C)=O)[C@H](O)CNC1CC2(CCC2)Oc2c1cc(CC(C)(C)C)nc2NC (stereo partly shown) [Example 221]"
  Reading unit: "µL/min/mg"
  HLM: 61

Which value of HLM has been reported for C=CC[C@H](NC(=O)COC)[C@H](O)CN[C@H]1CC2(CCC2)Oc2c1cc(CC(C)(C)C)nc2-c1nccn1C [compound 237] in the records? 58

Similarly, C#CC[C@H](NC(=O)[C@@H](C)OC)[C@H](O)CN[C@H]1CC2(CCC2)Oc2c1cc(CC(C)(C)C)nc2NC [compound 222] ? 165

Also check C=CC[C@H](NC(=O)COC)[C@H](O)CN[C@H]1CC2(CCC2)Oc2c1cc(CC(C)(C)C)nc2Nc1ccncc1 [compound 232] 551

And for CC[C@H](NC(C)=O)[C@H](O)CN[C@H]1CC2(CCC2)Oc2ncc(CC(C)(C)C)cc21 [compound 213] ? 36

# iterate: C=CC[C@H](NC(=O)COC)[C@H](O)CN[C@H]1CC2(CCC2)Oc2c(-c3ccncc3)cc(CC(C)(C)C)cc21 [compound 219] 106

---

System: Cells stably expressing Amyloid Precursor Protein (APP)
Test: In vitro BACE cell-based assay (HEK cell assay): Aβ40 in conditioned medium by sandwich ELISA
Settings: Homo sapiens, HEK293, 24 h, Aβ40 in conditioned medium after 24 h incubation
List of IC50 values.
Answer in nM, number only, no unit symbol.

Below, 2 molecules whose answers are already recorded.
- Molecule: "C=CC[C@H](NC(=O)c1cccnc1F)[C@H](O)CN[C@H]1CC2(CCC2)Oc2ncc(CC(C)(C)C)cc21"
  IC50 / nM: 517
- Molecule: "C=CC[C@H](NC(=O)c1cccnc1OC)[C@H](O)CN[C@H]1CC2(CCC2)Oc2ncc(CC(C)(C)C)cc21"
  IC50 / nM: 258

# lookup: IC50 of C=CC[C@H](NC(=O)C1CC(=O)N(C2CCC2)C1)[C@H](O)CN[C@H]1CC2(CCC2)Oc2ncc(CC(C)C)cc21 (some centres unmarked) 6

Then this molecule: C=CC[C@H](NC(=O)[C@H](CC)OC)[C@H](O)CN[C@H]1CC2(CCC2)Oc2ncc(CC(C)(C)C)cc21 420

Repeat for the following molecule: C=CCC(NC(=O)C1CN(C(C)=O)CCO1)C(O)CNC1CC2(CCC2)Oc2ncc(CC(C)(C)C)cc21 (centres unmarked) 60

Same question for C=CC[C@H](NC(=O)c1nccs1)[C@H](O)CN[C@H]1CC2(CCC2)Oc2ncc(CC(C)(C)C)cc21 please. 167

Again, but for C=CC[C@H](NC(C)=O)[C@H](O)CN[C@H]1C[C@]2(CC[C@@H]2O)Oc2ncc(CC(C)(C)C)cc21 212

Do the same for C=CC[C@H](NC(=O)COC)[C@H](O)CNC1CC2(CC(F)(F)C2)Oc2ncc(CC(C)(C)C)cc21 (some centres unmarked) please 127

// same read-out, input: C=CC[C@H](NC(=O)c1cncs1)[C@H](O)CN[C@H]1CC2(CCC2)Oc2ncc(CC(C)(C)C)cc21 201

Note, next up: C=CC[C@H](NC(=O)COC)[C@H](O)CN[C@H]1CC2(CCC2)Oc2ncc(CC(C)(C)C#N)cc21 7580

Input C=CC[C@H](NC(=O)COC(C)C)[C@H](O)CN[C@H]1CC2(CCC2)Oc2ncc(CC(C)(C)C)cc21 301

---

Form field: IC50 (one value per entry).
Molecular target: BACE1 (Homo sapiens)
Sequence (P56817 46-501, species assumed): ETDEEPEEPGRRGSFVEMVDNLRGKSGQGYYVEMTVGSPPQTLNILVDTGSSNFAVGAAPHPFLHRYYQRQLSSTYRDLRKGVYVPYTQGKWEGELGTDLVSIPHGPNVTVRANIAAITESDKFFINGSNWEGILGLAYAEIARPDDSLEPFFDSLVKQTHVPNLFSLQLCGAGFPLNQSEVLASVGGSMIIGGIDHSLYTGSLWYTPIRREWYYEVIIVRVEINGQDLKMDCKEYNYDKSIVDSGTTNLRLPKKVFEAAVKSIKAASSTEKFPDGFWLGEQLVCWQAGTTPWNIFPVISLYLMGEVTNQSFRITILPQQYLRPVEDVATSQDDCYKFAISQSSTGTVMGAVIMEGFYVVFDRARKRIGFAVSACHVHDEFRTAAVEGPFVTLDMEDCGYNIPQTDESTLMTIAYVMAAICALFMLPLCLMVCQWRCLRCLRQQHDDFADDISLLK
Assay: In vitro enzymatic BACE FRET (fluorescence resonance energy transfer) assay
Format: biochemical
Protocol: In Vitro Enzymatic BACE FRET (Fluorescence Resonance Energy Transfer) Assay (Enzyme Assay Data in Table 1) The assay buffer used in this screen is 0.05 M acetate, pH 4.2, 10% DMSO final, 100 uM genapol (which is a nonionic detergent, below its Critical Micelle Concentration). […] The FRET assay is terminated with by addition of Tris buffer, which raises the pH to neutrality, and the fluorescence is determined. […]
Field: numeric (nM). Do not append units.

Look over these answered cases.
- Compound: "C=CC[C@H](NC(=O)[C@@H](C)OC)[C@H](O)CN[C@H]1CC2(CCC2)Oc2nc(F)c(CC(C)C)cc21"
  Reading unit: "nM"
  IC50: 445
- Compound: "C=CC[C@H](NC(C)=O)[C@H](O)CN[C@H]1C[C@]2(CC[C@@H]2O)Oc2ncc(CC(C)(C)C)cc21"
  Reading unit: "nM"
  IC50: 63
- Compound: "C#CC[C@H](NC(=O)COC)[C@H](O)CN[C@H]1CC2(CCC2)Oc2ncc(CC(C)(C)C)cc21"
  Reading unit: "nM"
  IC50: 49
- Compound: "CC#CC[C@H](NC(=O)COC)[C@H](O)CN[C@H]1CC2(CCC2)Oc2ncc(CC(C)(C)C)cc21"
  Reading unit: "nM"
  IC50: 71
- Compound: "C=CC[C@H](NC(=O)c1c(F)ccc(F)c1F)[C@H](O)CN[C@H]1CC2(CCC2)Oc2ncc(CC(C)(C)C)cc21"
  Reading unit: "nM"
  IC50: 253
- Compound: "C=CC[C@H](NC(=O)COC(C)(C)C)[C@H](O)CN[C@H]1CC2(CCC2)Oc2ncc(CC(C)(C)C)cc21"
  Reading unit: "nM"
  IC50: 344
- Compound: "C=CC[C@H](NC(=O)[C@@H](OC)C(C)C)[C@H](O)CN[C@H]1CC2(CCC2)Oc2ncc(CC(C)(C)C)cc21"
  Reading unit: "nM"
  IC50: 934
- Compound: "C=CC[C@H](NC(=O)OCc1cncs1)[C@H](O)CN[C@H]1CC2(CCC2)Oc2ncc(CC(C)(C)C)cc21"
  Reading unit: "nM"
  IC50: 396
- Compound: "C=CC[C@H](NC(=O)COC)[C@H](O)CN[C@H]1CC2(CCC2)Oc2ncc(CC(C)(C)CF)cc21"
  Reading unit: "nM"
  IC50: 84
- Compound: "C=CC[C@H](NC(=O)c1ccccc1F)[C@H](O)CN[C@H]1CC2(CCC2)Oc2ncc(CC(C)(C)C)cc21"
  Reading unit: "nM"
  IC50: 339

What IC50 value was documented for this compound, C=CC[C@H](NC(=O)[C@H]1CCCO1)[C@H](O)CN[C@H]1CC2(CCC2)Oc2ncc(CC(C)(C)C)cc21 ? 84

Ok, now C=CC[C@H](NC(=O)c1cc(F)cc(F)c1F)[C@H](O)CN[C@H]1CC2(CCC2)Oc2ncc(CC(C)(C)C)cc21 305

For CC#CC[C@H](NC(=O)[C@@H](C)OC)[C@H](O)CN[C@H]1CC2(CCC2)Oc2ncc(CC(C)(C)C)cc21 then? 109

Now consider C=CC[C@H](NC(C)=O)[C@H](O)CN[C@H]1C[C@@]2(CC[C@@H]2O)Oc2ncc(CC(C)(C)C)cc21 . 8220
